Hello, the source for this data is the RNAGym collection of RNA variant scans (doi:10.7554/elife.80360), in case you need it.

Hi there, I'd appreciate the recorded self-cleavage for every entry that follows.
B1: HDV Ribozyme (parent)
chain: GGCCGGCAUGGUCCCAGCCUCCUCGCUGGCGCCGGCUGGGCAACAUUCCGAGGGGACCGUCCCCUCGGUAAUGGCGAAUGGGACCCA

- Variants of: B1
- assay.name: self-cleavage, relative activity (ratio to wild type); higher = more cleavage; co-transcriptional
Answers are plain numbers.

Look over these answered cases.
1) A43G G52U    0.742
2) G39A C49U    0.519
3) A16C C41A    0.388

I would be grateful if you could provide self-cleavage for each of the following entries.
1. G31U C84A
2. C30U C63G
3. C21U G39A

Response:
1: 0.146; 2: 0.47; 3: 0.993

I would be grateful if you could provide self-cleavage for each of the following entries.
1. C4U G73C
2. G29A U46G
3. G5A G31C
4. G17U A83U
5. G6A U46G
6. G28A C32G
7. C44G G81A
8. U37C C58U

Response:
1. 0.242
2. 0.166
3. 0.095
4. 0.34
5. 0.229
6. 0
7. 0.277
8. 0.997

I would be grateful if you could provide self-cleavage for each of the following entries.
1. A78U A87G
2. C19A C86A
3. C58G C61A
4. U27C G68A
5. C14U C19U
6. C18U C64A

Response:
0.226
0.273
1.14
0.697
0.0723
0.332

I would be grateful if you could provide self-cleavage for each of the following entries.
1. C14G G50A
2. C4G U9C
3. C32G U69C
4. G28U C48A
5. G6C C13U

Response:
[1.15, 0.19, 0.0639, 0.125, 0.0831]
